Can you tell me viability, T/C for the items I'm about to list?
Tested on: MDA-MB-468 spheroids with HUVEC/MSC, viability
Test: Anticancer human tumor MDA-MB-468 cell line growth inhibition [PI3K];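 also: spheroids exposed to agents for seven days before readout; 100% = DMSO vehicle control viability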
Details: second compound 0.1 µM; first compound 0.0316 µM; stronger effect = lower value

Record CCCS(=O)(=O)Nc1ccc(F)c(C(=O)c2c[nH]c3ncc(-c4ccc(Cl)cc4)cc23)c1F + CC(Nc1ncnc2nc[nH]c12)c1cc2cccc(Cl)c2c(=O)n1-c1ccccc1 ; system MDA-MB-468 spheroids with HUVEC/MSC, viability; viability, T/C = 92.4%

Record CC(C)NCC(C(=O)N1CCN(c2ncnc3c2C(C)CC3O)CC1)c1ccc(Cl)cc1 (stereo unspecified) + CC(Nc1ccc2c(c1)OCCn1cc(N3C(=O)OCC3C(F)F)nc1-2)C(N)=O ; system MDA-MB-468 spheroids with HUVEC/MSC, viability; viability, T/C = 104%

Record CC(=O)c1c(C)c2cnc(Nc3ccc(N4CCNCC4)cn3)nc2n(C2CCCC2)c1=O + CC(Nc1ccc2c(c1)OCCn1cc(N3C(=O)OCC3C(F)F)nc1-2)C(N)=O ; system MDA-MB-468 spheroids with HUVEC/MSC, viability; viability, T/C = 96%

Record C[C@@H](NC(=O)c1ncnc(N)c1Cl)c1ncc(C(=O)Nc2cc(C(F)(F)F)c(Cl)cn2)s1 + Cc1nc(NC(=O)N2CCCC2C(N)=O)sc1-c1ccnc(C(C)(C)C(F)(F)F)c1 ; system MDA-MB-468 spheroids with HUVEC/MSC, viability; viability, T/C = 88.4%

Record CC(C)n1nc(-c2ccc3oc(N)nc3c2)c2c(N)ncnc21 + COc1c(OCCCN2CCOCC2)ccc2c3n(c(=NC(=O)c4cnc(N)nc4)nc12)CCN3 ; system MDA-MB-468 spheroids with HUVEC/MSC, viability; viability, T/C = 36%

Record CCCS(=O)(=O)Nc1ccc(F)c(C(=O)c2c[nH]c3ncc(-c4ccc(Cl)cc4)cc23)c1F + COc1c(OCCCN2CCOCC2)ccc2c3n(c(=NC(=O)c4cnc(N)nc4)nc12)CCN3 ; system MDA-MB-468 spheroids with HUVEC/MSC, viability; viability, T/C = 55.8%

Record CC(C)n1nc(-c2ccc3oc(N)nc3c2)c2c(N)ncnc21 + Cc1nc(NC(=O)N2CCCC2C(N)=O)sc1-c1ccnc(C(C)(C)C(F)(F)F)c1 ; system MDA-MB-468 spheroids with HUVEC/MSC, viability; viability, T/C = 51.6%

Record CC1(C)CCC(CN2CCN(c3ccc(C(=O)NS(=O)(=O)c4ccc(NCC5CCOCC5)c([N+](=O)[O-])c4)c(Oc4cnc5[nH]ccc5c4)c3)CC2)=C(c2ccc(Cl)cc2)C1 + CC(Nc1ncnc2nc[nH]c12)c1cc2cccc(Cl)c2c(=O)n1-c1ccccc1 ; system MDA-MB-468 spheroids with HUVEC/MSC, viability; viability, T/C = 83.8%

Record CC(C)n1nc(-c2ccc3oc(N)nc3c2)c2c(N)ncnc21 + CC(Nc1ccc2c(c1)OCCn1cc(N3C(=O)OCC3C(F)F)nc1-2)C(N)=O ; system MDA-MB-468 spheroids with HUVEC/MSC, viability; viability, T/C = 54.2%

Record C[C@@H](NC(=O)c1ncnc(N)c1Cl)c1ncc(C(=O)Nc2cc(C(F)(F)F)c(Cl)cn2)s1 + CC(Nc1ncnc2nc[nH]c12)c1cc2cccc(Cl)c2c(=O)n1-c1ccccc1 ; system MDA-MB-468 spheroids with HUVEC/MSC, viability; viability, T/C = 83%

Record CC(C)NCC(C(=O)N1CCN(c2ncnc3c2C(C)CC3O)CC1)c1ccc(Cl)cc1 (stereo unspecified) + Cc1nc(NC(=O)N2CCCC2C(N)=O)sc1-c1ccnc(C(C)(C)C(F)(F)F)c1 ; system MDA-MB-468 spheroids with HUVEC/MSC, viability; viability, T/C = 84.8%

Record Cn1ncnc1[C@H]1c2n[nH]c(=O)c3cc(F)cc(c23)N[C@@H]1c1ccc(F)cc1 + Cc1nc(NC(=O)N2CCCC2C(N)=O)sc1-c1ccnc(C(C)(C)C(F)(F)F)c1 ; system MDA-MB-468 spheroids with HUVEC/MSC, viability; viability, T/C = 62.7%

Record C[C@@H](NC(=O)c1ncnc(N)c1Cl)c1ncc(C(=O)Nc2cc(C(F)(F)F)c(Cl)cn2)s1 + CC(Nc1ccc2c(c1)OCCn1cc(N3C(=O)OCC3C(F)F)nc1-2)C(N)=O ; system MDA-MB-468 spheroids with HUVEC/MSC, viability; viability, T/C = 98.7%

Record C#Cc1c(F)ccc2cc(O)cc(-c3ncc4c(N5CC6CCC(C5)N6)nc(OCC56CCCN5CC(F)C6)nc4c3F)c12 (stereo unspecified) + CC(Nc1ccc2c(c1)OCCn1cc(N3C(=O)OCC3C(F)F)nc1-2)C(N)=O ; system MDA-MB-468 spheroids with HUVEC/MSC, viability; viability, T/C = 84%

Record Cn1nccc1Nc1nccc(-c2ccn(C(CO)c3ccc(Cl)c(F)c3)c(=O)c2)n1 (stereo unspecified) + Cc1nc(NC(=O)N2CCCC2C(N)=O)sc1-c1ccnc(C(C)(C)C(F)(F)F)c1 ; system MDA-MB-468 spheroids with HUVEC/MSC, viability; viability, T/C = 92.2%

Record CC1(C)CCC(CN2CCN(c3ccc(C(=O)NS(=O)(=O)c4ccc(NCC5CCOCC5)c([N+](=O)[O-])c4)c(Oc4cnc5[nH]ccc5c4)c3)CC2)=C(c2ccc(Cl)cc2)C1 + COc1c(OCCCN2CCOCC2)ccc2c3n(c(=NC(=O)c4cnc(N)nc4)nc12)CCN3 ; system MDA-MB-468 spheroids with HUVEC/MSC, viability; viability, T/C = 55.7%

Record Cn1ncc(Cl)c1-c1cc(C(=O)NC(CN)Cc2cccc(F)c2)sc1Cl (stereo unspecified) + COc1c(OCCCN2CCOCC2)ccc2c3n(c(=NC(=O)c4cnc(N)nc4)nc12)CCN3 ; system MDA-MB-468 spheroids with HUVEC/MSC, viability; viability, T/C = 49.6%

Record C#Cc1c(F)ccc2cc(O)cc(-c3ncc4c(N5CC6CCC(C5)N6)nc(OCC56CCCN5CC(F)C6)nc4c3F)c12 (stereo unspecified) + CC(Nc1ncnc2nc[nH]c12)c1cc2cccc(Cl)c2c(=O)n1-c1ccccc1 ; system MDA-MB-468 spheroids with HUVEC/MSC, viability; viability, T/C = 96.5%

Record C=CC(=O)N1CCN(c2nc(=O)n(-c3c(C)ccnc3C(C)C)c3nc(-c4c(O)cccc4F)c(F)cc23)C(C)C1 (stereo unspecified) + Cc1nc(NC(=O)N2CCCC2C(N)=O)sc1-c1ccnc(C(C)(C)C(F)(F)F)c1 ; system MDA-MB-468 spheroids with HUVEC/MSC, viability; viability, T/C = 93.2%

Record CNC(=O)c1ccc(N2C(=S)N(c3ccc(C#N)c(C(F)(F)F)c3)C(=O)C2(C)C)cc1F + CC(Nc1ncnc2nc[nH]c12)c1cc2cccc(Cl)c2c(=O)n1-c1ccccc1 ; system MDA-MB-468 spheroids with HUVEC/MSC, viability; viability, T/C = 88%

Record CCN1CCN(Cc2ccc(Nc3ncc(F)c(-c4cc(F)c5nc(C)n(C(C)C)c5c4)n3)nc2)CC1 + Cc1nc(NC(=O)N2CCCC2C(N)=O)sc1-c1ccnc(C(C)(C)C(F)(F)F)c1 ; system MDA-MB-468 spheroids with HUVEC/MSC, viability; viability, T/C = 89.1%
